# ASSAY_REMARKS: Stability of prodrugs / release of parent drug in Simulated Gastric Fluid (SGF)
# Assay type: in vitro ADME
# CONDITION_DESCRIPTION: simulated gi fluid, 1 h, 1 µM, pH 1.2
MEASURED_ATTRIBUTE: Prodrug Remaining (%)
Answers are plain numbers, in %.

Please state Prodrug Remaining (%) for every compound in the list that follows.
1. CCCCC(OC(=O)[C@@H](C)c1ccc2cc(OC)ccc2c1)O[N+](=O)[O-] (stereo partly shown) [I-D2-R4]
2. CCCC(OC(=O)[C@@H](C)c1ccc2cc(OC)ccc2c1)O[N+](=O)[O-] (stereo partly shown) [I-D2-R3]
3. COc1ccc2cc([C@H](C)C(=O)OCCCO[N+](=O)[O-])ccc2c1 [II-D2-X3, reference compound]
4. COc1ccc2cc([C@H](C)C(=O)OCCCCO[N+](=O)[O-])ccc2c1 [II-D2-X4, reference compound]

A.
1. 88.87
2. 75.48
3. 100.00
4. 100.00

Please state Prodrug Remaining (%) for every compound in the list that follows.
1. COc1ccc2cc([C@H](C)C(=O)OCCO[N+](=O)[O-])ccc2c1 [II-D2-X2, reference compound]
2. CCC(OC(=O)[C@@H](C)c1ccc2cc(OC)ccc2c1)O[N+](=O)[O-] (stereo partly shown) [I-D2-R2]
3. COc1ccc2cc([C@H](C)C(=O)OC(C)O[N+](=O)[O-])ccc2c1 (stereo partly shown) [I-D2-R1]

A.
[99.67, 51.01, 0.00]
